assay: Proteolysis during production detected using mass spectroscopy; assay type: physicochemical; conditions: proteolytic stability

| molecule | Proteolysis During Production? |
| --- | --- |
| ELA-B: Fc-linker fusion of elabela analogue KLNKHNCLQRRCMPLHSRVPFP (R3N) (protein) MRAWIFFLLCLAGRALADKTHTSPPSPAPEAAGGPSVFLFPPKPKDTLMISRTPEVTCVVVDVSHEDPEVKFNWYVDGVEVHNAKTKPREEQYNSTYRVVSVLTVLHQDWLNGKEYKCKVSNKALPAPIEKTISKAKGQPREPQVYTLPPSREEMTKNQVNLTCLVKGFYPSDIAVEWESNGQPENNYKTTPPVLDSDGSFFLNSTLTVDKSRWQQGNVFSCSVMHEALHNHYTQKSLSLSPGKGGGGSGGGGSGGGGSKLNKHNCLQRRCMPLHSRVPFP | No |
